The entries below are paired with their reported GI50.
System: SK-MEL-2
Assay Protocol: NCI tumour cell line growth inhibition, 48 h
Active and inactive are the calls of the source. No stated cut-off is given here; in the data, active = GI50 up to about 1.1 µM and inactive = higher.

>  <Compound>
O=[N+]([O-])c1cccc2nccc(NCCCO)c12

>  <GI50>
4.38 µM (inactive)

$$$$
>  <Compound>
COc1ccc(Cn2c(C)nc3c2C(=O)c2ccccc2C3=O)cc1

>  <GI50>
13.2 µM (inactive)

$$$$

We next turn to a different compound, shown below.
What measured GI50 goes with COc1ccc2c(CCNS(=O)(=O)c3ccccc3)c(C(C)=O)[nH]c2c1 ? > 100 µM (inactive)

* * *

Tested on: NCI/ADR-RES
Assay Protocol: NCI tumour cell line growth inhibition, 48 h
Calls of active or inactive are those of the source. No stated cut-off is given here; in the data, active = GI50 up to about 1.1 µM and inactive = higher.
Write down the outcome that applies. Available outcomes: active, inactive

How was COC(=N)c1ncn(Cc2ccccc2)c1N classified in this test? inactive

How was COc1cc(/C=N\O)nc(-c2ccccn2)c1 classified in this test? active

How was CCN(CC)c1ccc2cc(C(=O)Nc3ccccc3)c(=N)oc2c1 classified in this test? inactive

How was c1ccc2c(CN3CCN(Cc4c[nH]c5ccccc45)CC3)c[nH]c2c1 classified in this test? inactive

How was COC(=O)C1(CCCCCBr)CCCCCCCCCCC1=O (stereo unspecified) classified in this test? inactive

How was COc1ccc(-c2nc3ccccc3c(=S)n2OC(C)=O)cc1 classified in this test? inactive

How was COc1cc2c(cc1OC)C1CN3CCCC3C(O)C1c1cc(OC)c(OC)cc1-2 (stereo unspecified) classified in this test? inactive

How was O=C1OC(c2ccccc2)=N/C1=C\c1ccc(F)cc1 classified in this test? inactive

How was Oc1ccc(CCc2cc(O)cc(O)c2)cc1 [DIHYDRORESVERATROL] classified in this test? inactive

How was CC[C@H]1C=CCC[C@@]2(C[C@@H]3CC[C@@H]4[C@H](C(=O)OCCCCCCCCCCCCCCCC(=O)O)[C@]5(CCC[C@@H](C)O5)NC(=[N+]34)N2)O1 [CRAMBESCIDIN 657] classified in this test? inactive

How was COc1ccccc1C1C2=C(COC2=O)Oc2cc3c(cc21)OCO3 (stereo unspecified) classified in this test? inactive

How was NC(Cc1ccc(B(O)O)cc1)C(=O)NC(CO)CO (stereo unspecified) classified in this test? inactive

How was COC(=O)c1c(O)ccc2c1c1c(n2Cc2cc(OC)cc(OC)c2)C(=O)c2ccccc2C1=O classified in this test? inactive

How was O=C1c2[nH]c3ccccc3c2CCN2CCCCC12 (stereo unspecified) classified in this test? inactive

How was CS(=O)(=O)OCCN(CCOS(C)(=O)=O)c1ccc(/C=N/c2ccc(-c3csc(COc4ccccc4)n3)cc2)cc1 classified in this test? inactive

How was CSc1nc(-c2cc3c(c(SC)n2)CCCCC3)cc2c1CCCCC2 classified in this test? inactive

How was CN(C)CCNc1c([N+](=O)[O-])cc2c3c(cccc13)C(=O)N(CCN(C)C)C2=O classified in this test? inactive

How was O=C(c1ccccc1)n1[nH]c(=O)n(-c2ccc(Cl)cc2)c1=O classified in this test? inactive

How was CCOC(=O)C(C)NC(=O)N(C)C12CC3CC(CC(C3)C1)C2 (stereo unspecified) classified in this test? inactive

How was CCOC(=O)COc1ccccc1/C=C1\CCC(CN(C)C)C1=O (stereo unspecified) classified in this test? inactive

How was O=C(Oc1c(Br)cc(Br)cc1C(=O)Oc1ccccc1)C(=O)Oc1c(Br)cc(Br)cc1C(=O)Oc1ccccc1 classified in this test? inactive

How was COc1cc(/C=C2\CCC(C)C3=C(c4cc(OC)c(OC)c(OC)c4)C(C#N)=C(N)OC32)cc(OC)c1OC (stereo unspecified) classified in this test? inactive

* * *

Test system: DMS-114
Assay Protocol: NCI tumour cell line growth inhibition, 48 h
Active and inactive are the calls of the source. Rule as the data show it: active = GI50 up to about 1.1 µM and inactive = higher.
Write down the outcome that applies. Available outcomes: YES = active, NO = inactive

Here's what some known entries look like.
>  <Molecule>
Nc1ccc(C(=O)NN2C(=O)C(Cl)C2c2ccc(O)cc2)cc1 (stereo unspecified)

>  <Assigned Class>
NO

$$$$
>  <Molecule>
c1c(N2CCOCC2)s[s+]c1N1CCOCC1

>  <Assigned Class>
NO

$$$$
>  <Molecule>
[O-]c1on[n+]2c1c(Nc1ccc(Cl)cc1)nc1ccccc12

>  <Assigned Class>
NO

$$$$
>  <Molecule>
Cc1c(C(=O)O)oc2ccc([N+](=O)[O-])cc12

>  <Assigned Class>
NO

$$$$
>  <Molecule>
NC1=NC(=O)/C(=C/c2ccccc2[N+](=O)[O-])C(N)=N1

>  <Assigned Class>
NO

$$$$
>  <Molecule>
CC12CCC3C(CCC4(O)C=CCCC34C=O)C1(O)CC(O)C2c1ccc(=O)oc1 (stereo unspecified)

>  <Assigned Class>
YES

$$$$
>  <Molecule>
COc1nc(N)c(NC(C)=O)c(=O)n1C

>  <Assigned Class>
NO

$$$$
>  <Molecule>
COc1ccc(NC(=O)CSc2nnc(Cc3ccccc3)o2)cc1

>  <Assigned Class>
NO

$$$$

How was CC(=O)CC(=O)Nc1ccc(OS(N)(=O)=O)cc1 classified in this test? NO

How was C=CCNC(=O)C(C)C1CCC2(C)C=CC(=O)C(C)=C2C1O (stereo unspecified) classified in this test? NO

How was CNC(=O)OCc1nccc2c(C)c3[nH]c4ccc(OC)cc4c3cc12 classified in this test? NO

* * *

Test system: CAKI-1
Assay Protocol: NCI tumour cell line growth inhibition, 48 h
Active and inactive are the calls of the source. No stated cut-off is given here; in the data, active = GI50 up to about 1.1 µM and inactive = higher.
Write down the outcome that applies. Available outcomes: 1 = active, 0 = inactive

>  <Smiles Code>
COc1ccc2c(CCNS(=O)(=O)c3ccccc3)c(C(C)=O)[nH]c2c1

>  <Assigned Class>
1

$$$$
>  <Smiles Code>
COc1ccc(-c2nc(-c3cc4ccccc4oc3=O)cs2)cc1

>  <Assigned Class>
0

$$$$
>  <Smiles Code>
COc1ccc(/C=C2\C[C@H]3[C@@H]4CC=C5C[C@@H](OC(C)=O)CC[C@]5(C)[C@H]4CC[C@]3(C)C2=O)cc1OC

>  <Assigned Class>
0

$$$$

Please find the next compound below.
How was CCOC(=O)c1c(N2CCOCC2)[nH]c(=O)c(C(c2c(Cl)cccc2Cl)c2c(O)c(C(=O)OCC)c(N3CCOCC3)[nH]c2=O)c1O classified in this test? 0

* * *

System: ACHN
Assay Protocol: NCI tumour cell line growth inhibition, 48 h
Counter-ions that a name gives are not always drawn. The source made the active and inactive calls. Rule as the data show it: active = GI50 up to about 1.1 µM and inactive = higher.
Write down the outcome that applies. Available outcomes: t for active, f for inactive

Here's what some known entries look like.
>  <Molecule>
Nc1nc(Cl)c(N)c(NCC2(CO)CCC(CCc3ccccc3)C2)n1 (configuration not stated)

>  <Assigned Class>
f

$$$$
>  <Molecule>
COc1cc(/C=C2\CCc3ccccc3C2=O)ccc1O

>  <Assigned Class>
f

$$$$
>  <Molecule>
c1ccc(C(=NNc2cnc3ccccc3n2)c2ccccn2)cc1

>  <Assigned Class>
t

$$$$
>  <Molecule>
COc1cc(/C=C/c2ccccn2)cc(OC)c1OC

>  <Assigned Class>
f

$$$$
>  <Molecule>
Cc1ccc2c(=O)c(C(=O)NNC(=S)NC3CCCCC3)c[nH]c2n1

>  <Assigned Class>
f

$$$$
>  <Molecule>
Cc1ccc2nc(N/N=C/c3ccc(C)s3)cc(C)c2c1

>  <Assigned Class>
f

$$$$
>  <Molecule>
CCOC(=O)C1=C(C)NC(=S)NC1c1ccccc1 (configuration not stated)

>  <Assigned Class>
f

$$$$
>  <Molecule>
CC(=O)OCc1c2ccccc2c(C)c2c1cc(F)c1ccccc12

>  <Assigned Class>
f

$$$$

How was O=C(Nc1ccccc1C(=O)NCc1ccccc1)/C(=C/c1ccccc1)NC(=O)c1ccccc1 classified in this test? f

How was O=C(O)c1ccc(C(=O)Nc2cccc3ccccc23)c(C(=O)O)c1 classified in this test? f

How was O=C1NC(N2CCOCC2)=N/C1=C\c1ccccc1O classified in this test? f

How was O=[N+]([O-])/C=C1\COCc2cc3c(cc21)OCO3 classified in this test? f

How was C1=C2/CC[C@H](Sc3ccccc3)[C@H]2C2(CCCCC/1)OCCO2 classified in this test? f

How was FC(F)(Sc1ncc[nH]1)c1nc2ccccc2o1 classified in this test? f

How was O=C1c2c(O)cccc2-c2nn(CCNCCO)c3ccc(NCCNCCO)c1c23 [LOSOXANTRONE HYDROCHLORIDE] classified in this test? t

How was COC(=O)C1=CC2C=CC(C1C(=O)OC)C1C(C(=O)OC)=C(C(=O)OC)C(C(=O)OC)=C(C(=O)OC)C21OC (configuration not stated) classified in this test? f

How was O=C(CSc1nc2ccc([N+](=O)[O-])cc2s1)c1ccc2ccccc2c1 classified in this test? f

How was COc1cc(/C=C2\CCC(C)C3=C(c4cc(OC)c(OC)c(OC)c4)C(C#N)=C(N)OC32)cc(OC)c1OC (configuration not stated) classified in this test? f

How was COC(=O)c1c(O)ccc2c1c1c(n2Cc2cc(OC)cc(OC)c2)C(=O)c2ccccc2C1=O classified in this test? f

How was N#Cc1c2c(c(Cl)n3c1nc1ccccc13)CCCC2 classified in this test? f

How was COc1cc(OC)c(CSCC(NC(=O)OCC2c3ccccc3-c3ccccc32)C(=O)O)c(OC)c1 (configuration not stated) classified in this test? f

How was O=CC(=C(I)I)c1ccccc1 classified in this test? f

These measurements were taken from ChEMBL document CHEMBL1201862.
